System: Macaca fascicularis PRLR (mfPRLR.mmh; SEQ ID NO:403)
Sequence (as listed by the source): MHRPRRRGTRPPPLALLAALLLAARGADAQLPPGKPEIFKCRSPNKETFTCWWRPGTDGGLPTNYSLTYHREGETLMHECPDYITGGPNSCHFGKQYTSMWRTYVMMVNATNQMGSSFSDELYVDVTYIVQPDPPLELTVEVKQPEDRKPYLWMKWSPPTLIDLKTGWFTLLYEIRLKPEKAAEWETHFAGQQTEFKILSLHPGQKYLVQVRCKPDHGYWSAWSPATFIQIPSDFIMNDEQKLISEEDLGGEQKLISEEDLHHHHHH
test.protocol: Surface plasmon resonance (Biacore T200), antibody-capture format
Assay type: binding
condition.description: 37° C., analyte mfPRLR.mmh
Protocol: Antibodies, expressed as human IgG1 Fc (i.e., “H1H” designations), were captured onto an anti-human Fc sensor surface (mAb-capture format), and soluble monomeric (hPRLR.mmh; SEQ ID NO:401, or Macaca fascicularis (mf) PRLR.mmh; SEQ ID NO:403) or dimeric (hPRLR.mFc; SEQ ID NO:402) PRLR protein was injected over the sensor surface. Measurements were conducted on a T200 Biacore instrument. […]
attribute.measured: ka (M/s)
Give a bare numeral; the unit M/s is implied.

Q: # lookup: ka of H1H6801P: fully human anti-PRLR antibody, human IgG1 Fc; HCVR/LCVR SEQ ID NOs 210/218 (antibody, V domains shown) VH: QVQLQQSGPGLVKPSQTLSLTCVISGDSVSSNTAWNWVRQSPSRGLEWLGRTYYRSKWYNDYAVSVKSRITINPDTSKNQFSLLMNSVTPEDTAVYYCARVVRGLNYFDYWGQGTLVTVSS VL: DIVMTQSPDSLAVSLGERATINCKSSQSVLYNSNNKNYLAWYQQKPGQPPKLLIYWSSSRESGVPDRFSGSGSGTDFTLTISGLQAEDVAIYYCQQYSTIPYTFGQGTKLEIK
Ans: 711000
